# system.under.test: T1, IL-1β (UniProt P01584 117-269)
# T1 construct: Antigen of XPA23
# experiment.notes: Biacore, Fab periplasmic extract
Below is a list of entries, each paired with its recorded fold difference in affinity against the original value.
Note: unit fold is implicit; provide only the numeric part.

Prompt: Looking for the measured fold difference in affinity against the original of XPA23 heavy chain R59L (Fab, V domains shown, Fab, periplasmic extract; also called C5A R59L) VH: EVQLLESGGGLVQPGGSLRLSCAASGFTFSKYFMFWVRQAPGKGLEWVSVISPSGGMTLYADSVKGRFTISRDNSKNTLYLQMNSLRAEDTAVYYCARVGYGGNSDYWGQGTLVTVSS VL: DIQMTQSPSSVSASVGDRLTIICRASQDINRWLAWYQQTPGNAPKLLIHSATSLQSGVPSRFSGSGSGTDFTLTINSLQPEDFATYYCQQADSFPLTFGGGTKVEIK , can you help?
Completion: 0.08

Prompt: Request: XPA23 heavy chain Y101A (Fab, V domains shown, Fab, periplasmic extract; also called C5A Y101A) VH: EVQLLESGGGLVQPGGSLRLSCAASGFTFSKYFMFWVRQAPGKGLEWVSVISPSGGMTRYADSVKGRFTISRDNSKNTLYLQMNSLRAEDTAVYYCARVGAGGNSDYWGQGTLVTVSS VL: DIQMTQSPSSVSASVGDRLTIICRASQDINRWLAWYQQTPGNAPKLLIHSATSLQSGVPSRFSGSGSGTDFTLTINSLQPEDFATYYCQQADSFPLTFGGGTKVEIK
Completion: 0.04

Prompt: Request: XPA23 heavy chain F33G (Fab, V domains shown, Fab, periplasmic extract; also called C5A F33G) VH: EVQLLESGGGLVQPGGSLRLSCAASGFTFSKYGMFWVRQAPGKGLEWVSVISPSGGMTRYADSVKGRFTISRDNSKNTLYLQMNSLRAEDTAVYYCARVGYGGNSDYWGQGTLVTVSS VL: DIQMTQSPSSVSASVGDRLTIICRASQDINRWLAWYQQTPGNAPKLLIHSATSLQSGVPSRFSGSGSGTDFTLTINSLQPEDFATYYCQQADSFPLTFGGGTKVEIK
Completion: 0.76

Prompt: Request: XPA23 heavy chain T58I (Fab, V domains shown, Fab, periplasmic extract; also called C5A T58I) VH: EVQLLESGGGLVQPGGSLRLSCAASGFTFSKYFMFWVRQAPGKGLEWVSVISPSGGMIRYADSVKGRFTISRDNSKNTLYLQMNSLRAEDTAVYYCARVGYGGNSDYWGQGTLVTVSS VL: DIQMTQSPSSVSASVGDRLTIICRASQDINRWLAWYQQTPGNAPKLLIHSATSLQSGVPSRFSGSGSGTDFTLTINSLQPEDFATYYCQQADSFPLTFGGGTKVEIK
Completion: 0.95
